Measured pIC50 of individual entries
Target: catalytic domain (JH1, amino acids 808-1132) of human JAK2 (Homo sapiens (Human))
Sequence (O60674 808-1132): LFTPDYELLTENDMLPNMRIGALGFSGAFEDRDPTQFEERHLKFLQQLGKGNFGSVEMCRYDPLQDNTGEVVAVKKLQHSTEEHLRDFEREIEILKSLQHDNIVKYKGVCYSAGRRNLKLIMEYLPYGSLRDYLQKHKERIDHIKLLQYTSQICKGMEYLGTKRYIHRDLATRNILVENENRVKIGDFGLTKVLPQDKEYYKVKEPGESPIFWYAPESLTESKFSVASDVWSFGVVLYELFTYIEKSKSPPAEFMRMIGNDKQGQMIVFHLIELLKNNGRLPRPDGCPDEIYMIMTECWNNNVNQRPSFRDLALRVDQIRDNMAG
Test: JAK2 HTRF Enzyme Activity Assay
Conditions: JAK2 0.015 nM, ATP (30 μM or 1 mM), 60 minutes at 25° C.
pIC50: −log10 of the molar value.

// worked examples, pIC50 included
Q) Item CC(=O)N1CC[C@H](c2cc3c4c(-c5ccccc5)c(-c5ccc(CN6CCC(S(C)(=O)=O)CC6)cc5)[nH]c4ncc3n(C)c2=O)C1 : provide pIC50
A) ≥ 7.00

Q) Identify pIC50 associated with the compound COc1ccc(-c2c(-c3cnn(C)c3)[nH]c3ncc4c(cc(C(=O)N(C)C)c(=O)n4C)c23)cc1
A) 5.00 to 6.00

Q) State its pIC50: CS(=O)(=O)C1CCN(Cc2ccc(-c3cc4c(ncc5[nH]c(=O)c(C#N)cc54)[nH]3)cc2)CC1
A) < 5.00

Q) For the compound CN(C)C(=O)c1cc2c3c(-c4ccc5c(cnn5C)c4)c(-c4cnn(C)c4)[nH]c3ncc2n(C)c1=O , give its reported pIC50.
A) 5.00 to 6.00

Q) Look up and report measured pIC50 for this entry: Cc1cc(-c2c(-c3ccc(NC4CCOCC4)cc3)c3c4cc(-c5cnn(C)c5)[nH]c4ncc3n(C)c2=O)on1
A) 6.00 to 6.30

Q) Report pIC50, nothing else, for this compound: COC1CCC(c2cc(=O)n(C)c3cnc4[nH]c(-c5cnn(C)c5)cc4c23)CC1 (centres unmarked)
A) ≥ 7.00

Q) Retrieve pIC50 measured for COCCN(C)c1ccc(-c2c(-c3cc(C)no3)c(=O)n(C)c3cnc4[nH]c(-c5cnn(C)c5)cc4c23)cc1 and print it.
A) 6.30 to 7.00

Q) Please give the documented pIC50 of Cc1ccncc1-c1cc2c3c(-c4ccc(C(=O)N(C)C)cc4)c(-c4cnn(C)c4)[nH]c3ncc2n(C)c1=O
A) ≥ 7.00

New cases:
Q) Item Cc1cc(-c2c(-c3ccc(-c4cnn(C)c4C)cc3)c3c4cc(-c5cnn(C)c5)[nH]c4ncc3n(C)c2=O)on1 : provide pIC50
A) 6.00 to 6.30

Q) Quote pIC50 reported for CN(C)C(=O)c1cc2c3c(-c4ccc(C5(C#N)CC5)cc4)c(-c4cnn(C)c4)[nH]c3ncc2n(C)c1=O please.
A) 5.00 to 6.00

Q) Identify measured pIC50 associated with CN(C)C(=O)c1ccc(-c2c(-c3cnn(C)c3)[nH]c3ncc4c(cc(NC5CCC(CC#N)CC5)c(=O)n4C)c23)cc1 (centres unmarked)
A) ≥ 7.00

Q) Identify measured pIC50 associated with Cc1cc(=O)[nH]c2cnc3[nH]c(-c4ccc(CN5CCC(S(C)(=O)=O)CC5)cc4)cc3c12
A) 5.00 to 6.00

Q) Give recorded pIC50. Cc1c(-c2ccc(-n3cnnn3)cc2)c(=O)[nH]c2cnc3[nH]c(-c4ccc(CN5CCC(S(C)(=O)=O)CC5)cc4)cc3c12
A) 5.00 to 6.00

Q) For the compound COCCS(=O)(=O)C1CCN(c2cc3c4c(-c5ccc(C(=O)N(C)C)cc5)c(-c5cnn(C)c5)[nH]c4ncc3n(C)c2=O)CC1 , report pIC50.
A) 5.00 to 6.00
